# System: SDMA in human colon cancer cell line HCT116
# testDescription: Cell symmetric dimethylarginine (SDMA) test, In-cell Western, HCT116 (MTAP wild-type)
# Format: cell-based
# testParameters: Homo sapiens, HCT-116, 96 h, read-out: Cell 96 h SDMA inhibition (HCT116-MTAP+/+)
pIC50: −log10 of the molar value.
1.0 means recorded pIC50 is 6 or above; 0.0 means it is below 6.

[
  {
    "smi": "CC(C)n1cc2c(n1)c(=O)n(-c1cccnc1)c1cc(Cl)ccc21",
    "category": 0.0
  },
  {
    "smi": "Cn1cc2c(n1)c(=O)n(-c1cccnc1)c1nc(C(F)(F)F)ccc21",
    "category": 1.0
  },
  {
    "smi": "Cn1cc2c(n1)c(=O)n(-c1cccnc1C1CC1)c1nc(C3CC3)c(F)cc21",
    "category": 0.0
  },
  {
    "smi": "Cn1cc2c(n1)c(=O)n(-c1cncc(F)c1)c1nc(C(F)(F)F)ccc21",
    "category": 0.0
  },
  {
    "smi": "Cn1cc2c(n1)c(=O)n(-c1cccc3[nH]ncc13)c1nc(C(F)(F)F)c(F)cc21",
    "category": 1.0
  },
  {
    "smi": "CN1CCN(c2ccc(Cn3cc4c(n3)c(=O)n(-c3cccc5[nH]ncc35)c3cc(Cl)c(F)cc43)cn2)CC1",
    "category": 0.0
  },
  {
    "smi": "Cn1cc2c(n1)c(=O)n(-c1ccc(F)c(O)c1)c1nc(C(F)(F)F)ccc21",
    "category": 0.0
  },
  {
    "smi": "Cn1cc2c(n1)c(=O)n(Cc1cn[nH]c1)c1cc(Cl)ccc21",
    "category": 0.0
  },
  {
    "smi": "Cn1cc2c(n1)c(=O)n(-c1cncc(O)c1)c1nc(C(F)(F)F)ccc21",
    "category": 1.0
  },
  {
    "smi": "Cn1cc2c(n1)c(=O)n(-c1cccc3[nH]ncc13)c1cc(Cl)c(F)cc21",
    "category": 0.0
  },
  {
    "smi": "Cn1cc2c(n1)c(=O)n(-c1cccc(F)c1)c1nc(C(F)(F)F)ccc21",
    "category": 0.0
  },
  {
    "smi": "Cn1cc2c(n1)c(=O)n(-c1ccc3cn[nH]c3c1)c1cc(Cl)ccc21",
    "category": 0.0
  },
  {
    "smi": "Cc1ncccc1-n1c(=O)c2nn(C)c(C)c2c2ccc(C(F)(F)F)nc21",
    "category": 1.0
  }
]
